For each of the compounds below, state its IC50.
# measurement-target: p97 (Homo sapiens (Human), UniProt P55072)
# Sequence (P55072 whole entry): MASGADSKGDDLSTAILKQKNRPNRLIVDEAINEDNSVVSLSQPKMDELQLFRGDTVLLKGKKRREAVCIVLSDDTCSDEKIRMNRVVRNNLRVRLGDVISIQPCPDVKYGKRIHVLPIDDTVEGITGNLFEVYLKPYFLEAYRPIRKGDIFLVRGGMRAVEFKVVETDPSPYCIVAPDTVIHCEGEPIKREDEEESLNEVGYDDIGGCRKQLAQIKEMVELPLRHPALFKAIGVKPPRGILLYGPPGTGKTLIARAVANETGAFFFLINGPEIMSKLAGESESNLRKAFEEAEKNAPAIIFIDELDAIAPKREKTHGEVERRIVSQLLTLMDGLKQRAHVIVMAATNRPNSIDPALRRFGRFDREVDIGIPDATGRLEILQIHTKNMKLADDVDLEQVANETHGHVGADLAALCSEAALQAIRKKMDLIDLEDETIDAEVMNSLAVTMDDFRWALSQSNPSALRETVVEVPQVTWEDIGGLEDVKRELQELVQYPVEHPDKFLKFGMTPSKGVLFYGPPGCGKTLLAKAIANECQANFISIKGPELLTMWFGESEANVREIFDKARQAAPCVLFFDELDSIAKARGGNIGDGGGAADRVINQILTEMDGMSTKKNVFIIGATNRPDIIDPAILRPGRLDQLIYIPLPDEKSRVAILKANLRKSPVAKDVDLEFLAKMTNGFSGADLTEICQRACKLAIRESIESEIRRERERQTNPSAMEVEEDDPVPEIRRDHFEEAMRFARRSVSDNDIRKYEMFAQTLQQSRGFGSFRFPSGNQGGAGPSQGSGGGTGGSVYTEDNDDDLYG
# experiment-summary: P97 ATPase biochem assay (ADP Glo)
# Assay type: biochemical
# details: 20 nM p97, 20 μM ATP, 37° C., 15 minutes; read-out: p97 biochem IC50

Respectfully, I request IC50 for each entry included below.
1. COCCOc1cccc2c(NCc3ccccc3)nc(-n3c(OC)nc4ccccc43)nc12 [drawing 222]
2. CCc1nc2ccccc2n1-c1nc(NCc2ccccc2)c2cccc(OC)c2n1
3. COc1cccc2c(NCc3ccoc3)nc(-n3c(N)nc4ccccc43)nc12
4. CCC1=NC(C)=C(C)C1c1nc(NCc2ccccc2)c2cccc(OC)c2n1 (centres unmarked)
5. COc1cccc2c(NCc3ccccc3)nc(-n3c(OC)cc4ccccc43)nc12 [drawing 204]
6. CC(=O)NCc1cc2ccccc2n1-c1nc2c(c(NCc3ccccc3)n1)CCCC2 [drawing 230]
7. COCc1nc(-n2c(N)nc3ccccc32)nc(NCc2ccccc2)c1C
8. Cc1cc2ccccc2n1-c1nc(NCc2ccccc2)c2cccc(C(N)=O)c2n1

Result block:
< 2000 nM
< 2000 nM
< 5000 nM
< 25000 nM
< 2000 nM
< 2000 nM
< 5000 nM
< 2000 nM

Respectfully, I request IC50 for each entry included below.
1. CC(=O)N1CCc2nc(-n3c(C)cc4ccccc43)nc(NCc3ccccc3)c2C1
2. COc1cccc2c(NCc3nccs3)nc(-n3c(N)nc4ccccc43)nc12

Result block:
1. < 2000 nM
2. < 25000 nM

Respectfully, I request IC50 for each entry included below.
1. COc1cccc2c(NCc3ccccc3)nc(N3CCOc4ccccc43)nc12
2. COc1cccc2c(NCc3ccccc3)nc(-n3c(CNC(C)=O)cc4ccccc43)nc12 [drawing 223]
3. COc1cccc2c(NCc3ccccc3)nc(C3CNc4ccccc43)nc12 (centres unmarked)
4. COc1cccc2c(NCc3ccccc3)nc(-n3c(/C=C(/C#N)C(N)=O)cc4ccccc43)nc12 [drawing 243]
5. COCCOc1cccc2c(NCc3ccccc3)nc(C3C(ON)=Nc4ccccc43)nc12 (centres unmarked)

Result block:
< 5000 nM
< 2000 nM
< 2000 nM
< 2000 nM
< 2000 nM

Respectfully, I request IC50 for each entry included below.
1. COc1cccc2c(NCc3ccccc3)nc(-n3c(CN)cc4ccccc43)nc12
2. COc1cccc2c(NCc3ccccc3)nc(-n3cnc4ccccc43)nc12
3. COc1cccc2c(NCc3ccccc3)nc(N3c4ccccc4CC3C)nc12 (centres unmarked)
4. COc1cccc2c(NCc3ccccc3)nc(-n3cc(C)c4ccccc43)nc12
5. COc1nc2ccccc2n1-c1nc2c(c(NCc3ccccc3)n1)CNCC2

Result block:
1. < 2000 nM
2. < 2000 nM
3. < 5000 nM
4. < 10000 nM
5. < 2000 nM
